List of IC50 values.
Target: UniProt Q9UBF8
Test: Kinase Glo Luminescent Kinase Assay (Kglo), assay D
Format: biochemical
Settings: read-out: Assay D PI4Kβ IC50
// note: answer is a bare numeric in µM

# count of solved cases: 2
- Cc1ccc(S(=O)(=O)NCCC(C)(C)O)cc1-c1cnc(N)c(-c2cnn(CC(F)(F)F)c2)n1: 7.01
- Cc1ccc(S(=O)(=O)N[C@H]2CC[C@H](O)CC2)cc1-c1cnc(N)c(-c2cccnc2)n1: 7.08

Please report IC50 for the following molecule: Cc1ccc(S(=O)(=O)NOC(C)C)cc1-c1cnc(N)c(-n2cncn2)n1 1.2

Specify reported IC50 for the molecule shown: Cc1ccc(S(=O)(=O)N[C@H]2CC[C@H](O)CC2)cc1-c1cnc(N)c(-c2ccncc2)n1 3.58

Check the records and state IC50 for Cc1ccc(S(=O)(=O)NCC(C)(C)CO)cc1-c1cnc(N)c(-c2cc(C3CC3)no2)n1 2.7

---

Molecular target: UniProt P42336
Sequence (P42336 whole entry): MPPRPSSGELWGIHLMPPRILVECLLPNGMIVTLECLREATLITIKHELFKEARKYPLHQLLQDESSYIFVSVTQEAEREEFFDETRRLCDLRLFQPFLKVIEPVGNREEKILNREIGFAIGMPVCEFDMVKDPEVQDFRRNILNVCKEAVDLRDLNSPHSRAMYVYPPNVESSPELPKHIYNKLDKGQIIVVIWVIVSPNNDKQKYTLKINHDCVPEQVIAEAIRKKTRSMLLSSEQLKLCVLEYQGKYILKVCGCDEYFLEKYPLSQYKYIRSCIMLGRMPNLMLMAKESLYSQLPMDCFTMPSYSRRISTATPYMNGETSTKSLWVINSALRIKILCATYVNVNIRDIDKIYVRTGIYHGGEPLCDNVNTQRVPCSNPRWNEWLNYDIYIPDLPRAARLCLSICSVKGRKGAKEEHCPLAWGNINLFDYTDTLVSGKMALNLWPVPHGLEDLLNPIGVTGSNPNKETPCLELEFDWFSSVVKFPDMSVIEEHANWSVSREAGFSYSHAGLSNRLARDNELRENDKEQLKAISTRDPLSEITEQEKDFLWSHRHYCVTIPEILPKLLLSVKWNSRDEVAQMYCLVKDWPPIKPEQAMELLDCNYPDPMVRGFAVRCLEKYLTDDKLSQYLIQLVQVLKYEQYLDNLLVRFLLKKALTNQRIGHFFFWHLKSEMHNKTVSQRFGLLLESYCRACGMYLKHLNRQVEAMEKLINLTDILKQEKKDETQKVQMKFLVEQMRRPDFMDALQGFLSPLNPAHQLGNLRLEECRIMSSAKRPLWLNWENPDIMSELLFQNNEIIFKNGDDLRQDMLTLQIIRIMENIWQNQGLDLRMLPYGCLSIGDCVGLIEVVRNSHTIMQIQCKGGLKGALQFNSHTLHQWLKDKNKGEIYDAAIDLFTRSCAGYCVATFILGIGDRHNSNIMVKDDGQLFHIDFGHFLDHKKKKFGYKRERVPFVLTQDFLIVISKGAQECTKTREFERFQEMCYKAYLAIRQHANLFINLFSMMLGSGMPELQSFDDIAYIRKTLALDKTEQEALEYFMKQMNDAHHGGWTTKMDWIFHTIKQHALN
Assay: Kinase Glo Luminescent Kinase Assay (Kglo), assay A
Format: biochemical
Details: read-out: Assay A PI3Kα IC50
readout: pIC50
Scale for pIC50: -log10 of concentration given in mol/L; no unit attached.

Determine from records and report pIC50 for Cc1ncc(-c2nc(-c3cc(S(=O)(=O)NCC4COCCN4C)ccc3C)cnc2N)s1 (stereo not shown) 7.30

---

Listed below: IC50 values for each entry.
Biological target: PI 3-kinase delta (Homo sapiens, UniProt O00329)
Sequence (O00329 whole entry): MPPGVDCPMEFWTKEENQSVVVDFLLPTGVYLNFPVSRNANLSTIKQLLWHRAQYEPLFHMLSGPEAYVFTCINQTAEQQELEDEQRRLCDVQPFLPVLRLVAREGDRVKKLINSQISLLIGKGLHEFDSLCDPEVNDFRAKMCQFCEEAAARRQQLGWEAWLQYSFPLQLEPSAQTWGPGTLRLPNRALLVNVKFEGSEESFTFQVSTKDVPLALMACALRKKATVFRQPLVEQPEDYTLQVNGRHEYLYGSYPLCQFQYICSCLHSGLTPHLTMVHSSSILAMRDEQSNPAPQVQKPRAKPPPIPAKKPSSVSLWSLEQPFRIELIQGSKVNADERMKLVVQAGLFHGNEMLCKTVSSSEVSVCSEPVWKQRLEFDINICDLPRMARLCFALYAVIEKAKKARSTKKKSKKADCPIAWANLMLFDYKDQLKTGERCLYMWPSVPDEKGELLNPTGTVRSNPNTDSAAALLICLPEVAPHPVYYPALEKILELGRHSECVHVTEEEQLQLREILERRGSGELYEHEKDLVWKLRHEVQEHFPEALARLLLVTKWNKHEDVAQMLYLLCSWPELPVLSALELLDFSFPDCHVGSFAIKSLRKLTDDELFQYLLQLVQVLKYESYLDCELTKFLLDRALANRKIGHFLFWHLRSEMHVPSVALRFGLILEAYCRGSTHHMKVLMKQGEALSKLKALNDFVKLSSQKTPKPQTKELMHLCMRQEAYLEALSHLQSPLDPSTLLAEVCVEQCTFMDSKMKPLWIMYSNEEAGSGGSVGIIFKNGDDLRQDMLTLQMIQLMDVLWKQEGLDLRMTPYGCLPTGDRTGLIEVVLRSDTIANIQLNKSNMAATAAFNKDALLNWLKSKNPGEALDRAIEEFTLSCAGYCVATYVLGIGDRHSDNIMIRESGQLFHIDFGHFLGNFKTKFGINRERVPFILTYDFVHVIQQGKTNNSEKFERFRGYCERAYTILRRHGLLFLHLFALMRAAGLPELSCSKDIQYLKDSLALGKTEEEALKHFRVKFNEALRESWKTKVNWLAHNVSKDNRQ
Sequence (P27986 461-568 partner): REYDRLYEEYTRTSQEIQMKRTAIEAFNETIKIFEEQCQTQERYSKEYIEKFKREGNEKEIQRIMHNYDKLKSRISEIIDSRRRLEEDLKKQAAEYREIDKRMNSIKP
Experiment: TR-FRET Adapta assay, assay F
Settings: read-out: Assay F PI3Kδ IC50
Output spec: scalar in µM, unitless text.

Take a look at these entries with their results.
* Cc1ccc(S(=O)(=O)NCCC(C)(C)O)cc1-c1cnc(N)c(-n2ccnc2)n1 | 5.81
* Cc1ccc(S(=O)(=O)NCCC(C)(C)O)cc1-c1cnc(N)c(-c2cc(Cl)cnc2F)n1 | 0.2
* Cc1noc(-c2nc(-c3cc(S(=O)(=O)NC[C@H]4C[C@@H](O)C4)ccc3C)cnc2N)n1 | 0.55

Retrieve IC50 measured for Cc1ccc(S(=O)(=O)NCC(C)(C)O)cc1-c1cnc(N)c(-n2cnc(C3CC3)n2)n1 and print it. 0.69

---

Biological target: Vps34 (Homo sapiens)
Sequence (Q8NEB9 whole entry, species assumed): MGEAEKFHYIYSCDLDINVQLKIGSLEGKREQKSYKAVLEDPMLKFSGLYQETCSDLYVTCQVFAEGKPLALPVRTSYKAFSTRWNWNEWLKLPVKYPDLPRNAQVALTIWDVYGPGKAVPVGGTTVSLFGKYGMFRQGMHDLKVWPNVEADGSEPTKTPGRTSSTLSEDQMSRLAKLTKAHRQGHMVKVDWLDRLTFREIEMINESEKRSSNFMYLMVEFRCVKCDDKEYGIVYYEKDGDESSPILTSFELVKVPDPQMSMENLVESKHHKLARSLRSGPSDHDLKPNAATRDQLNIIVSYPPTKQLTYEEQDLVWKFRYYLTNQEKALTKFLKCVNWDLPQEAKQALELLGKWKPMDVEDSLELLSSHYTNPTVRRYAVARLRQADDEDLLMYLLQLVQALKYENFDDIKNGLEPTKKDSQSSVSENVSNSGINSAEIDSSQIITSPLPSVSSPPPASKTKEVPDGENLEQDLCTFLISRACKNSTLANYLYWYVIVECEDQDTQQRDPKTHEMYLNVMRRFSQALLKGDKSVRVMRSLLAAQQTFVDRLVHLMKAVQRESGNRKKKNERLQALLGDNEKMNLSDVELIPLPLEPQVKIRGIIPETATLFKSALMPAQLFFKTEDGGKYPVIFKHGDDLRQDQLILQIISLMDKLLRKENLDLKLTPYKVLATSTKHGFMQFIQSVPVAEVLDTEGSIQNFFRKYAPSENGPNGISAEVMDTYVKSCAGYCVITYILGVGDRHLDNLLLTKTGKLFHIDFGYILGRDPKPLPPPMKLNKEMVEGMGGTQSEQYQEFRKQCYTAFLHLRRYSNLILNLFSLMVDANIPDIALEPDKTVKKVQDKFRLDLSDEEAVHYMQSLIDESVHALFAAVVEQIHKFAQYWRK
Assay: Kinase Glo Luminescent Kinase Assay (Kglo), assay C
Type: biochemical
Settings: read-out: Assay C VPS34 IC50
pIC50: −log10 of the molar value. Where a name gives a salt, the structure may show the parent alone.
Recorded pIC50 for the following compounds

Observe how each entry below is paired with its result.
- Cc1ccc(S(=O)(=O)NC2CC2)cc1-c1cnc(N)c(-n2cncn2)n1: < 5.00
- Cc1cn(-c2nc(-c3cc(S(=O)(=O)NCCC(C)(C)O)ccc3C)cnc2N)cn1: < 5.04
- Cc1cc(-c2nc(-c3cc(S(=O)(=O)NC[C@H](C)O)ccc3C)cnc2N)ccn1: < 5.04
- Cc1cc(-c2nc(-c3cc(S(=O)(=O)NC4CC(F)(F)C4)ccc3C)cnc2N)ccn1: < 5.04
- Cc1cc(-c2nc(-c3cc(S(=O)(=O)NCC4(O)CCC4)ccc3C)cnc2N)ccn1: < 5.04
- CCN(CC)CCCNS(=O)(=O)c1ccc(C)c(-c2cnc(N)c(-c3ccnc(C)c3)n2)c1: < 5.04
- Cc1ccc(S(=O)(=O)NCCC(C)(C)O)cc1-c1cnc(N)c(-c2cnn(Cc3ccccc3)c2)n1 [Example 132, hydrochloride]: < 5.04

Please look at the following compound next.
Specify pIC50 for Cc1ncc(-c2nc(-c3cc(S(=O)(=O)N[C@H]4CC[C@@H](O)CC4)ccc3C)cnc2N)s1 and stop. 6.49

---

Molecular target: PI 3-kinase beta (Homo sapiens, UniProt P42338)
Sequence (P42338 whole entry): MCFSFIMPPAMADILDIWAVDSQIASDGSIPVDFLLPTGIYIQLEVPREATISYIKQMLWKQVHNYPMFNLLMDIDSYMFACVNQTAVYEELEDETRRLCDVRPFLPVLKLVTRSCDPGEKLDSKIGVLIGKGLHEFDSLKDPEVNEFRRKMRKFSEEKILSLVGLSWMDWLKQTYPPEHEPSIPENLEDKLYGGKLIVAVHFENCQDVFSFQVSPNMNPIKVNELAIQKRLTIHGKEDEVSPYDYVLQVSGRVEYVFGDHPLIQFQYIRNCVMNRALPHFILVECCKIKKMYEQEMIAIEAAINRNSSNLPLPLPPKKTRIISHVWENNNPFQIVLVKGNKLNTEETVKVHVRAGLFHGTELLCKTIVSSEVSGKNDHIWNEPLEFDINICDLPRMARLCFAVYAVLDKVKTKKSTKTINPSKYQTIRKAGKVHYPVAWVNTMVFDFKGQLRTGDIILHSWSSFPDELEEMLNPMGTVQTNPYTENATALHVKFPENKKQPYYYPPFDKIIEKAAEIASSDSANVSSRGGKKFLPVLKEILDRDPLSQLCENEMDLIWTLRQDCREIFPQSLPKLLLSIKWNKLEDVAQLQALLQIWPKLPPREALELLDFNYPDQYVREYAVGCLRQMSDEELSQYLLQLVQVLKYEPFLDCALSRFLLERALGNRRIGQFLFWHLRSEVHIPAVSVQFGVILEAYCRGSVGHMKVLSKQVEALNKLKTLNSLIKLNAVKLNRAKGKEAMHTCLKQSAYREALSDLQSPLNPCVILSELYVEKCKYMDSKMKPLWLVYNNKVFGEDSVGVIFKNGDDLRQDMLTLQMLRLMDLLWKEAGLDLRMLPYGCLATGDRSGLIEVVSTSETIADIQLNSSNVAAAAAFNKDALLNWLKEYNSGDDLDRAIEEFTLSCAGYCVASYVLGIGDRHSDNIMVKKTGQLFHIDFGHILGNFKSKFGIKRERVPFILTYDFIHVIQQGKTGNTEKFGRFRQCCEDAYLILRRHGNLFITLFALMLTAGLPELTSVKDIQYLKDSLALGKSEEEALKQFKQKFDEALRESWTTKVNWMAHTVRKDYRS
Sequence (P27986 461-568 partner): as the sequence (P27986 461-568 partner) above
Assay: Kinase Glo Luminescent Kinase Assay (Kglo), assay B
Assay type: biochemical
Settings: read-out: Assay B PI3Kβ IC50
Structures can show the parent of a compound that is named as a salt.
readout: IC50 (nM)
Record the value in nM, omitting the unit from your answer.

- Cc1ccc(S(=O)(=O)NCC2(C)COC2)cc1-c1cnc(N)c(-c2cnn(C)c2)n1: 690
- Cc1ccc(S(=O)(=O)NCCC(C)(C)O)cc1-c1cnc(N)c(-n2cnc(C3CC3)n2)n1: 6380

Give reported IC50 value for Cc1ccc(S(=O)(=O)NCCC(C)(C)O)cc1-c1cnc(N)c(-c2cnn(CCN3CCOCC3)c2)n1 3250

Provide only the value of recorded IC50 for Cc1ccc(S(=O)(=O)N[C@@H]2CNC[C@H]2O)cc1-c1cnc(N)c(-n2cncn2)n1 [Example 127.60, trifluoroacetic acid salt] 730

Report measured IC50; entry is Cc1ccc(S(=O)(=O)NCC2(O)COC2)cc1-c1cnc(N)c(-n2cncn2)n1 2200

Return IC50 (reported value) for this compound: CCONS(=O)(=O)c1ccc(C)c(-c2cnc(N)c(-n3cncn3)n2)c1 3300

---

Target: PI 4-kinase beta (Homo sapiens)
Sequence (Q9UBF8 whole entry): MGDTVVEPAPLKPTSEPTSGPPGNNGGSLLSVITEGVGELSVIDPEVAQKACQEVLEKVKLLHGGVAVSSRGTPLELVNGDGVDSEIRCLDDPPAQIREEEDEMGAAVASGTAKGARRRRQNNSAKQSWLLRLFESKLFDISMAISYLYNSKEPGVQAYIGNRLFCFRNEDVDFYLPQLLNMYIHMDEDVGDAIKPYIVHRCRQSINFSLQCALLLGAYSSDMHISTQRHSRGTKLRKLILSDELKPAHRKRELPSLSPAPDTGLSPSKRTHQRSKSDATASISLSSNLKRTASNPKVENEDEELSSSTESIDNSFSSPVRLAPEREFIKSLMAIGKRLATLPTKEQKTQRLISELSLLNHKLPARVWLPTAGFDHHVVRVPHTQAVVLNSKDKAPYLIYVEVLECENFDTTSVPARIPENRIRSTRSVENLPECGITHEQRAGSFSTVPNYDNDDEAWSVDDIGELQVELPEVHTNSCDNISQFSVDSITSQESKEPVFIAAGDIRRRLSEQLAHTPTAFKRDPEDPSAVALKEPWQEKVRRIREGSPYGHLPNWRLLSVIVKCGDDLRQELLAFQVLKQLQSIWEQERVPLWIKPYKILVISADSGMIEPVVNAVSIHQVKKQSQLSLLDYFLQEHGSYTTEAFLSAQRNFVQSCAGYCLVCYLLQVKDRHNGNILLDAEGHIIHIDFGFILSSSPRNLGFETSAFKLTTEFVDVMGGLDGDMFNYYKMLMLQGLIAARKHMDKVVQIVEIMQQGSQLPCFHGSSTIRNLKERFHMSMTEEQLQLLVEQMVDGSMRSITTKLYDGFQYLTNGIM
Test: Kinase Glo Luminescent Kinase Assay (Kglo), assay D
Type: biochemical
Conditions: read-out: Assay D PI4Kβ IC50
readout: pIC50
Interpret pIC50 as the negative base-10 log of the concentration measured in mol/L.

Output measured pIC50 for this item: Cc1ncc(-c2nc(-c3cc(S(=O)(=O)N[C@H]4CC[C@H](O)CC4)ccc3C)cnc2N)s1 5.80

Output pIC50 of Cc1ccc(S(=O)(=O)NCC2CCCOC2)cc1-c1cnc(N)c(-n2cncn2)n1 (stereo not drawn) 5.41

---

Tested on: IL-8-induced neutrophil shape change in human whole blood
Test: Whole blood neutrophil shape change assay (L)
Format: cell-based
Conditions: Homo sapiens, Neutrophil, IL-8, human whole blood, read-out: Assay L WBSC IC50
readout: IC50 (nM)
Entry rule: numbers only, all in nM.

A selection of reference data follows.
• Cc1ncc(-c2nc(-c3cc(S(=O)(=O)N4CCNC(C(F)(F)F)C4)ccc3C)cnc2N)s1 (stereo not shown) = 898
• Cc1cc(-c2nc(-c3cc(S(=O)(=O)NCCC(C)(C)O)ccc3C)cnc2N)on1 = 3700
• Cc1ccc(S(=O)(=O)NCC2(O)CCC2)cc1-c1cnc(N)c(-n2cncn2)n1 = 1720

Note: attention shifts to another entry.
Please report IC50 for the following molecule: Cc1ncc(-c2nc(-c3cc(S(=O)(=O)NCCCO)c(F)cc3C)cnc2N)s1 143

---

Items are presented alongside their recorded IC50.
Target: PI 3-kinase delta (Homo sapiens, UniProt O00329)
Test: TR-FRET Adapta assay, assay F
Conditions: read-out: Assay F PI3Kδ IC50
Counter-ions that a name gives are not always drawn.
Dear colleague, please return just the value in nM, with no unit written.

Take a look at these entries with their results.
* Cc1ccc(S(=O)(=O)NCC(C)(C)CO)cc1-c1cnc(N)c(-c2cc(C3CC3)no2)n1 | 140
* Cc1ccc(S(=O)(=O)NCCC(C)(C)O)cc1-c1cnc(N)c(-c2csc(CN3CCOCC3)c2)n1 | 50
* Cc1csc(-c2nc(-c3cc(S(=O)(=O)NCC(C)(C)O)ccc3C)cnc2N)n1 | 400
* CCc1noc(-c2nc(-c3cc(S(=O)(=O)N[C@H]4CC[C@H](O)CC4)ccc3C)cnc2N)n1 | 160
* CCONS(=O)(=O)c1ccc(C)c(-c2cnc(N)c(-n3cncn3)n2)c1 | 500
* Cc1csc(-c2nc(-c3cc(S(=O)(=O)NCCC(C)(C)O)ccc3C)cnc2N)c1 | 100
* Cc1ncc(-c2nc(-c3cc(S(=O)(=O)NC4CCC(F)(F)CC4)ccc3C)cnc2N)s1 | 30
* Cc1ccc(S(=O)(=O)NC[C@H]2CCNC2)cc1-c1cnc(N)c(-n2cncn2)n1 [Example 127.58, trifluoroacetic acid salt] | 460
* Cc1ccc(S(=O)(=O)NCCC2(O)CCCC2)cc1-c1cnc(N)c(-n2cncn2)n1 | 790
* Cc1ccc(S(=O)(=O)N[C@H]2CC[C@H](O)CC2)cc1-c1cnc(N)c(-c2nc(C3CC3)no2)n1 | 60

Provide only the value of recorded IC50 for Cc1ccc(S(=O)(=O)NCC(C)(C)N2CCOCC2)cc1-c1cnc(N)c(-n2cncn2)n1 1200

In one line, give reported IC50 of the entry Cc1cc(-c2nc(-c3cc(S(=O)(=O)NC[C@@H]4CCNC4)ccc3C)cnc2N)ccn1 . 1200

Quick one: give measured IC50 for Cc1ccc(S(=O)(=O)N[C@H]2CC[C@H](O)CC2)cc1-c1cnc(N)c(-c2ccncc2)n1 130

Answer with the recorded IC50 for the molecule listed here: Cc1cc(-c2nc(-c3cc(S(=O)(=O)N4CC5(CNC5)C4)ccc3C)cnc2N)ccn1 2800

For the molecule Cc1ccc(S(=O)(=O)N2CC(F)(F)C2)cc1-c1cnc(N)c(-n2cncn2)n1 , report IC50. 2500

Provide only the value of recorded IC50 for Cc1ccc(S(=O)(=O)NCC(C)(C)O)cc1-c1cnc(N)c(-c2nn(C)nc2C)n1 20

---

Entries and their pIC50 values follow.
Molecular target: PI 4-kinase beta (Homo sapiens)
Assay: Kinase Glo Luminescent Kinase Assay (Kglo), assay D
Assay type: biochemical
Settings: read-out: Assay D PI4Kβ IC50
Where a name gives a salt, the structure may show the parent alone.
By convention, pIC50 is the negative base-10 log of a molar concentration.

The cases that follow already have their pIC50 on record.
• Cc1ccc(S(=O)(=O)NCCC(C)(C)O)cc1-c1cnc(N)c(-c2cnn(C(C)C)c2)n1 [Example 119.31] = 5.43
• Cc1ccc(S(=O)(=O)NOCCN(C)C)cc1-c1cnc(N)c(-n2cncn2)n1 [Example 112.2] = 5.27
• Cc1cc(-c2nc(-c3cc(S(=O)(=O)NCC4(O)CCC4)ccc3C)cnc2N)ccn1 [Example 129.5] = 5.30
• Cc1ccc(S(=O)(=O)NCCC(C)(C)O)cc1-c1cnc(N)c(-c2cccs2)n1 [Example 119.45] = 5.61
• Cc1cc(-c2nc(-c3cc(S(=O)(=O)NCCC(C)(C)O)ccc3C)cnc2N)on1 [Example 89] = 5.15

Give me measured pIC50, please, for this molecule: Cc1ccc(S(=O)(=O)NCCC2(O)CCCCC2)cc1-c1cnc(N)c(-n2cncn2)n1 [Example 127.37] 5.10

Fill in pIC50 for record Cc1ncc(-c2nc(-c3cc(S(=O)(=O)N4CC(CO)C4)ccc3C)cnc2N)s1 [Example 45.8] 5.48

Give the value of pIC50 reported for the following: Cc1ccc(S(=O)(=O)NCC2(O)COC2)cc1-c1cnc(N)c(-n2cncn2)n1 [Example 127.47] 5.18

Tell me pIC50 reported for Cc1ccc(S(=O)(=O)NOCC(C)(C)O)cc1-c1cnc(N)c(-c2cn(C)nc2C)n1 [Example 125] 5.12

Output pIC50 of Cc1ccc(S(=O)(=O)N[C@@H]2CNC[C@H]2O)cc1-c1cnc(N)c(-n2cncn2)n1 [Example 127.60, trifluoroacetic acid salt] 5.48

Please list pIC50 recorded for the molecule Cc1ccc(S(=O)(=O)NCC2(O)CCC2)cc1-c1cnc(N)c(-n2cncn2)n1 [Example 127.16] 5.30

// Input: Cc1ccc(S(=O)(=O)NCC2(O)CCOCC2)cc1-c1cnc(N)c(-n2cncn2)n1 [Example 32] . Output its pIC50 only. 5.39

The values you see were collected from patent US10004732B2.
